Listed here are variants together with their documented protein stability index.
B1: PBXIP1 (parent)
chain: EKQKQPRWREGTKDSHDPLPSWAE

# Variants of: B1
# TEST METHOD NOTES: protein stability index of a GFP-peptide fusion (GPS, HEK-293T) (PSI 1-6); higher = more stable;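 note: lentivirally expressed fusions sorted by FACS into six bins by GFP to DsRed ratio, PSI derived from sequencing read proportions per bin multiplied by bin number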
# CONDITIONS: c terminus: a fixed tail appended
Form field (numeric): enter value without unit.

Worked examples, 4 variants total:
Problem: What value of measured protein stability index is listed for `P6W` ?
Result: 1.98

Problem: Now try `R7K` .
Result: 2.02

Problem: // repeat for `H16I` and report
Result: 1.98

Problem: Follow-up entry: `G11Y`
Result: 1.98

***
Problem: Dear colleague, I am looking for the recorded protein stability index of the following variant: `S15T`
Result: 1.96

Problem: Another: `D17N`
Result: 1.97
